meta.source: patent US6596497B1

System: HIV-1IIIB
Assay: HIV-1-mediated cytopathic effect (CPE), XTT
Assay type: cell-based
Conditions: human; MT-2 cells; read-out: Selective Index (S.I.) = CC50/IC50 for CPE
observed-property: selectivity ratio at 6 days

compound="Cc1ccc(N(C(=O)Nc2ccc(Cl)c(Cl)c2)C(C)c2nc3ccccc3c(=O)[nH]2)c(C)c1 (stereo not shown)" recorded_result="≤ 1"
compound="COC(=O)c1cc(C(=O)OC)cc(N(C(=O)Nc2ccc(Cl)c(Cl)c2)C(C)c2nc3ccccc3c(=O)n2Cc2ccccc2)c1 (stereo not shown)" recorded_result="≤ 1"
compound=O=P(CCP(c1ccccc1)c1ccccc1)(c1ccccc1)c1ccccc1 recorded_result="≤ 1"
compound="CC(c1nc2ccc(Cl)cc2c(=O)n1Cc1ccccc1)N(C(=O)c1ccc([N+](=O)[O-])cc1)c1ccc(F)cc1 (stereo not shown)" recorded_result="≤ 1"
compound="CC(Nc1ccccc1Cl)c1nc2ccccc2c(=O)n1Cc1ccccc1 (stereo not shown)" recorded_result="≤ 1"
compound="Cc1ccc(N(C(=O)Nc2ccccc2)C(C)c2nc3ccccc3c(=O)[nH]2)c(C)c1 (stereo not shown)" recorded_result="≤ 1"
compound="C=CC1C[N@@]2CCC1C[C@@H]2C(OC(=O)c1ccc(OC)cc1)c1ccnc2ccccc12 (stereo partly shown)" recorded_result="≤ 1"
compound=O=C(Nc1ccc(Cl)c(Cl)c1)O/N=C(/c1ccccc1)c1ccc(-c2ccccc2)cc1 recorded_result="≤ 1"
compound=O=C(Nc1cc([N+](=O)[O-])ccc1-c1ccc([N+](=O)[O-])cc1)c1ccc([N+](=O)[O-])cc1Cl recorded_result="≤ 1"
compound=Cc1ccc(N=Nc2c(S(=O)(=O)O)cc3cc(S(=O)(=O)O)cc(Nc4nc(Cl)nc(Nc5ccccc5)n4)c3c2O)c(S(=O)(=O)O)c1 recorded_result=9.43
compound="Cc1ccc(N(C(=O)Nc2cccc(Cl)c2)C(C)c2nc3ccccc3c(=O)[nH]2)c(C)c1 (stereo not shown)" recorded_result="≤ 1"
compound=C/C(=N/OC(=O)NS(=O)(=O)c1ccc(C)cc1)c1cc2ccccc2oc1=O recorded_result="≤ 1"
compound="CCC1C[N@@]2CCC1C[C@@H]2C(OC(=O)c1ccccc1Cl)c1ccnc2ccc(OC)cc12 (stereo partly shown)" recorded_result="≤ 1"
